Reported values of viability decrease (inhibition) for individual entries
- ASSAY REMARKS: reduced SW480 viability measured with CellTiter-Glo, NPC library, primary (AID 1117343)
- EXPERIMENTAL SETUP: CellTiter-Glo luminescence; at 20 µM (top of the series)
Only the number, expressed in %, is required.

Below, each entry is followed by its recorded viability decrease (inhibition) result.
1) CCN(CC)CCNC(=O)c1cc(Cl)c(N)cc1OC; -17.7
2) CCC[C@H](N[C@@H](C)C(=O)N1[C@H](C(=O)O)C[C@@H]2CCCC[C@@H]21)C(=O)OCC; 0

Req: What viability decrease (inhibition) value was documented for this compound, CCCCOc1ccc(C(=O)CCN2CCCCC2)cc1 ?
Resp: 59.5

Req: Consider next the compound CCCC(C(=O)OCCN(CC)CC)(c1ccccc1)c1ccccc1 in the same way.
Resp: 76.5

Req: Consider next the compound Cc1[nH]cnc1CN1CCc2c(c3ccccc3n2C)C1=O in the same way.
Resp: 42.2

Req: Consider next the compound CCN(CC)C(=O)N1CCN(C)CC1 in the same way.
Resp: 53.1

Req: Consider next the compound COc1cc(C)c(Cc2cnc(N)nc2N)cc1OC in the same way.
Resp: 11.5

Req: Consider next the compound CCN(CC)CCOC(=O)C(Cc1cccc2ccccc12)CC1CCCO1 (stereo not drawn) in the same way.
Resp: 37.7

Req: Consider next the compound CC[C@]12CCCN3CCc4c(n(c5ccccc45)C(=O)C1)[C@@H]32 in the same way.
Resp: 60

Req: Consider next the compound COCCCOc1cc(C[C@@H](C[C@H](N)[C@@H](O)C[C@H](C(=O)NCC(C)(C)C(N)=O)C(C)C)C(C)C)ccc1OC in the same way.
Resp: 4.7

Req: Consider next the compound O=C1c2c(O)cccc2Cc2cccc(O)c21 in the same way.
Resp: 61.6

Req: Consider next the compound CCCc1cc(C(N)=S)ccn1 in the same way.
Resp: 5.3

Req: Consider next the compound NCCCCCC(=O)O in the same way.
Resp: 9.9

Req: Consider next the compound Nc1c2ccccc2nc2ccccc12 in the same way.
Resp: 107

Req: Consider next the compound CCCCc1nc(Cl)c(CO)n1Cc1ccc(-c2ccccc2-c2nn[nH]n2)cc1 in the same way.
Resp: 28.5

Req: Consider next the compound Cc1cc(CC(=O)O)n(C)c1C(=O)c1ccc(Cl)cc1 in the same way.
Resp: 14.7

====

- MEASUREMENT TARGET: Single-stranded DNA-binding protein (Escherichia coli (strain K12)) (UniProt P0AGE0)
- ASSAY REMARKS: SSB-ssDNA binding inhibitors – biochemical, fluorescence polarization, NIH Clinical Collection, counter-screen for HCV NS3 helicase inhibitor project (AID 743271)
- EXPERIMENTAL SETUP: E. coli SSB-DNA binding, hits give high values, concentration not given here
Starred links: 1 amine or outer side, 2 acyl side, 3 side chain; linkers in the order of their positions; H or OH if unused. Positions of bridges follow the written chain, without caps; N, C: chain ends. Non-standard residues stand in square brackets, D forms with d. Residues, ends and D or L forms follow the SMILES beside them. Chains are numbered I, II in the order given. Actinocin(9to1) = Cc1c2oc3c(C)ccc(C(=O)[*:1])c3nc-2c(C(=O)[*:2])c(N)c1=O; NMeV = CN[C@H](C(=O)O)C(C)C; Sar = CNCC(=O)O
ENDPOINT: inhibition (%)
Only the number, expressed in %, is required.

Below, each entry is followed by its recorded inhibition result.
1) COc1ccccc1OCC(O)CN1CCN(CC(=O)Nc2c(C)cccc2C)CC1 (stereo unspecified); -4.72
2) CC(C)c1nc(CN(C)C(=O)N[C@H](C(=O)N[C@@H](Cc2ccccc2)C[C@H](O)[C@H](Cc2ccccc2)NC(=O)OCc2cncs2)C(C)C)cs1; 9.91
3) Cc1c2oc3c(C)ccc(C(=O)N[C@@H]4C(=O)N[C@H](C(C)C)C(=O)N5CCC[C@H]5C(=O)N(C)CC(=O)N(C)[C@@H](C(C)C)C(=O)O[C@@H]4C)c3nc-2c(C(=O)N[C@@H]2C(=O)N[C@H](C(C)C)C(=O)N3CCC[C@H]3C(=O)N(C)CC(=O)N(C)[C@@H](C(C)C)C(=O)O[C@@H]2C)c(N)c1=O (I: T[dV]P[Sar][NMeV] / II: T[dV]P[Sar][NMeV]; ester I:1-I:C, II:1-II:C; linker I:N-II:N via Actinocin(9to1)); 2.76
4) CCOC(=O)OC(C)OC1=C(C(=O)Nc2ccccn2)N(C)S(=O)(=O)c2ccccc21 (stereo unspecified); -0.39
5) CC1(C)O[C@@H]2C[C@H]3[C@@H]4C[C@H](F)C5=CC(=O)C=C[C@]5(C)[C@@]4(F)[C@@H](O)C[C@]3(C)[C@]2(C(=O)CO)O1; 0.29
6) Cn1c(NCCN(CCO)CCCc2ccc([N+](=O)[O-])cc2)cc(=O)n(C)c1=O; 1.44
7) COC(=O)CCc1ccc(OCC(O)CNC(C)C)cc1 (stereo unspecified); -5.49
8) C[C@H](NC(CCc1ccccc1)C(=O)O)C(=O)N1CCC[C@H]1C(=O)O (stereo partly specified); 2.98
9) C[C@@H]1C[C@H]2[C@@H]3CCC4=CC(=O)C=C[C@]4(C)[C@@]3(F)[C@@H](O)C[C@]2(C)[C@H]1C(=O)CO; -1.97
10) Cc1cccc(C)c1OCC(C)N (stereo unspecified); -4.29

--- query ---
Req: Missing value: inhibition, Single-stranded DNA-binding protein (Escherichia coli (strain K12)) (UniProt P0AGE0), entry CC(C)(O)c1ccccc1CC[C@@H](SCC1(CC(=O)O)CC1)c1cccc(/C=C/c2ccc3ccc(Cl)cc3n2)c1 . Fill in?
Resp: 4.52
